tested on: HS 578T breast; experiment: NCI-60 one-dose screen, 48 h (100 = growth as untreated, 0 = no growth, -100 = all killed); settings: 10 µM unless noted
This is part of a sample that, as a whole, favours compounds with a hit. Of some 83,000 tested, about 20% had one in any assay.
So I've got a bunch of compounds here, and I need their growth values.
All answers are understood in %, so give the number only.

Recorded result, "NS(=O)(=O)c1ccc(Nc2nc(N/N=C/c3ccc4c(c3)OCO4)nc(Nc3ccccc3)n2)cc1" , growth: 52

Recorded result, "N#Cc1nc(-c2ccc(Cl)cc2)oc1N1CCC(S(=O)(=O)N2CCOCC2)CC1" , growth: 105

Recorded result, "CCCCc1nc2c(N)nc3ccccc3c2n1Cc1cccc(CN)c1" , growth: 67.2

Recorded result, "CN1CCN(c2ccc(Nc3nc(NCCCNS(=O)(=O)c4cccc(F)c4)c4sccc4n3)cc2)CC1" , growth: 50.4

Recorded result, "Fc1cc(F)cc(NNC(=S)c2ccccc2)c1" , growth: 61.3

Recorded result, "CC1(C)CC[C@]23CC[C@]4(C)[C@H](CC[C@@H]5[C@@]6(C)CC[C@H](NCO)C(C)(C)[C@@H]6CC[C@]54C)[C@H]2[C@H]1OC3" , growth: 90.7

Recorded result, "O=C(CSc1nnc(-c2cccs2)n1-c1ccccc1)Nc1ccccc1" , growth: 33.2

Recorded result, "Cc1ccccc1Nc1nc(SC(C)C)nc(-c2ccccc2)c1C#N" , growth: 63.1

Recorded result, "Cn1c(SCC(=O)c2ccco2)nc2ccccc2c1=O" , growth: 104

Recorded result, "N#Cc1nc(-c2ccccc2)oc1N1CCC(C2(C(F)(F)F)N=N2)CC1" , growth: 96.7

Recorded result, "C[C@@H]1OCC2(CCN(c3cnc(C(=O)Nc4cc(F)cc5cccnc45)cn3)CC2)[C@@H]1N" , growth: 66.6

Recorded result, "COc1ccc(/C=N/NC(=O)CSc2nc(-c3cnccn3)cc(-c3cccs3)c2C#N)cc1OC" , growth: 69.8

Recorded result, "C/C(=N\NC(=O)Nc1ccccc1)c1nnn(-c2ccc([N+](=O)[O-])cc2)c1C" , growth: 116

Recorded result, "O=C1Nc2ccc(F)cc2/C1=C\C(=O)c1ccc(NS(=O)(=O)c2ccccc2)cc1" , growth: 110

Recorded result, "N#C/C(=C\c1cccc2c1OCO2)C(=O)Nc1sc2c(c1C#N)CCCC2" , growth: 102

Recorded result, "COc1cc(-c2nc(-c3ccccc3)[nH]c2-c2ccnc(NCCCNS(=O)(=O)c3ccc(C)cc3)n2)ccc1F" , growth: 107

Recorded result, "C#Cc1nc(C(=O)NCCCCCCC(=O)NO)cs1" , growth: -3.14

Recorded result, "Brc1cccc(-c2cc(-c3cnc4c(c3)OCCO4)n[nH]2)c1" , growth: 76.1

Recorded result, CCS(=O)(=O)Nc1ccc(C(=O)CC2(O)C(=O)Nc3ccccc32)cc1 (stereo not given) , growth: 104

Recorded result, "CC(C)(C)c1cc(NC(=O)Nc2ccc(-c3cn4c5c(sc4n3)CCc3cn(CCCN4CCCCC4)cc3-5)cc2)no1" , growth: 38.4

Recorded result, "Cc1ccc(-c2csc(N/N=C/c3cccs3)n2)cc1" , growth: 105

Recorded result, "Fc1cccc(Cl)c1/C=N/Nc1nc(N/N=C/c2c(F)cccc2Cl)nc(N2CCCCC2)n1" , growth: 33.3

Recorded result, "Cc1ccc(NC(=O)Nc2nc3ccc([N+](=O)[O-])cc3s2)cc1" , growth: 15.2

Recorded result, "CCc1cc(OC(=O)N2CCC(N3CCCCC3)CC2)ccc1Nc1cc(-c2ccc(-n3cccn3)cc2)[nH]n1" , growth: 66.8

Recorded result, "Cc1ccc(-c2cc3nc(C(Cl)Cl)nc(-c4ccc(S(=O)(=O)N(C)C)cc4)n3n2)cc1" , growth: 105

Recorded result, "O=S(=O)(Oc1ccc(-c2cn3ccoc3n2)cc1)C1CCCCC1" , growth: 102

Recorded result, CC[C@]12C=CCN3CC[C@]4(C(=C(C(=O)OC)C1)Nc1cc5c(cc14)[C@@H]1[C@H](O5)[C@@H](O)[C@@]4(CC)CC(C(=O)OC)=C5Nc6cc(O)ccc6[C@@]56CCN1C46)C32 (stereo not given in full) , growth: -7

Recorded result, "CN1CCN(Cc2ccc(NC(=O)c3cncc(C#Cc4cnc5ccc(N)nn45)c3)cc2C(F)(F)F)CC1" , growth: 20.6

Recorded result, "NC1=NC2(CCCC2)N(c2ccc(S(=O)(=O)Nc3nccs3)cc2)C(N)=N1" , growth: 109

Recorded result, "C=C(C)[C@@H]1CC[C@]2(C(=O)O)CC[C@]3(C)[C@H](CC[C@@H]4[C@@]5(C)C/C(=C/c6ccccn6)C(=O)C(C)(C)[C@@H]5CC[C@]43C)[C@@H]12" , growth: 63.6

* * *

Tested on: HOP-62 NSCLC
Experiment: NCI-60 one-dose screen, 48 h (100 = growth as untreated, 0 = no growth, -100 = all killed)
Settings: 10 µM unless noted
Method: Growth inhibition of the HOP-62 human Non-Small Cell Lung tumor cell line is measured as a screen for anti-cancer activity. Cells are grown in 96 well plates and exposed to the test compound for 48 hours. Compounds are tested at a single concentration, which is 10^-5 M for most compounds. The reported endpoint is percent growth (GI% or GIPRCNT), where numbers from 0 - 100% represent growth inhibition, and numbers from -100% - 0 represent cell death. […]
Compounds without any hit were thinned out: in the full panel of roughly 83,000, 20% have a hit.
experimentalReadout: growth (%)
All answers are understood in %, so give the number only.

HOP-62 NSCLC assay, compound "COc1ccc(OC)c(CCn2cncc2-c2c[nH]c3ccc(Cl)cc23)c1" , recorded growth = 49.5

HOP-62 NSCLC assay, compound "CN1CCN(Cc2ccc(NC(=O)c3cncc(C#Cc4cnc(N)nc4)c3)cc2C(F)(F)F)CC1" , recorded growth = 19.3

HOP-62 NSCLC assay, compound "CC(C)=CCC[C@](C)(O)[C@H]1CC[C@]2(C)[C@@H]1CC[C@@H]1[C@@]3(C)CC[C@H](N)C(C)(C)[C@@H]3CC[C@]12C" , recorded growth = 97.9

HOP-62 NSCLC assay, compound "NC(=O)c1ncn2c(=O)n(CCF)nnc12" , recorded growth = 53.5

HOP-62 NSCLC assay, compound "CN1CCN(c2ccc(Nc3nc(NCCCNS(=O)(=O)c4ccc(Cl)cc4)c4sccc4n3)cc2)CC1" , recorded growth = 52.5

* * *

test system: NCI-H23 lung; assay: NCI-60 one-dose screen, 48 h (100 = growth as untreated, 0 = no growth, -100 = all killed); conditions: 10 µM unless noted
Compounds without any hit were thinned out: in the full panel of roughly 83,000, 20% have a hit.
experimentalReadout: growth (%)
All answers are understood in %, so give the number only.

Recorded result, "COc1ccc(-c2c3c(cn2Cc2cccc(OC)c2)-c2oncc2CCC3)cc1" , growth: 105

Recorded result, "O=C(COc1ccc(/C=C2\C(=O)Nc3ccc(Cl)cc32)cc1)Nc1ccc(Cl)cc1" , growth: 59.7

Recorded result, "CN1CCN(c2ccc(Nc3nc(NCCCNS(=O)(=O)c4cccc(F)c4)c4sccc4n3)cc2)CC1" , growth: 84

* * *

system: UACC-62 melanoma; test: NCI-60 one-dose screen, 48 h; details: 10 µM unless noted
The panel holds about 83,000 compounds, 20% with a hit somewhere; the sample as a whole holds those more often. The source made the active and inactive calls. The calls were made as follows: active = growth percent below 10; inactive = the rest.
Tick one outcome: active, inactive

Status in this test for "CCNCCOc1ccc(/C(=C(/CC)c2ccc(Cl)cc2)c2ccc(OCCCN(C)C)cc2)cc1" ?
active

Status in this test for "COc1ccccc1Cn1cc(C#N)c(N)c1C(=O)c1ccc(Br)cc1" ?
inactive

Status in this test for "CN1CCN(c2ccc(C(=O)/C=C/c3cc(F)cc(C(F)(F)F)c3)cc2)CC1" ?
inactive

Status in this test for "O=C1[C@@H]2Cc3c([nH]c4ccccc34)[C@@H](c3ccc(Cl)cc3)N2C(=O)CN1C1CCN(Cc2ccccc2)CC1" ?
inactive

Status in this test for "Cc1[nH]c(C(=O)Nc2ccc(C(=O)NCC3CCNCC3)cc2OC(C)C)c(Cl)c1Cl" ?
inactive

Status in this test for "Cc1cc(NS(=O)(=O)c2ccc(NC(=O)CSc3nc4ccccc4c(=O)n3-c3ccccc3)cc2)no1" ?
inactive

Status in this test for "CCN(CC)CCOc1ccc(C(=C(c2ccccc2)C2CCCC2)c2ccc(OCCN(CC)CC)cc2)cc1" ?
active

Status in this test for "CC1CCN(CC(=O)Nn2c(COc3ccccc3)nc3ccccc3c2=O)CC1" ?
inactive

Status in this test for "C#C[C@]1(O)CC[C@H]2[C@@H]3CC=C4c5sc(Nc6cc(C)cc(C)c6)nc5CC[C@]4(C)[C@H]3CC[C@@]21C" ?
active
